The values you see were collected from patent US20160376343A1.

# experimental.target: T1, hIL-17A (human, UniProt Q16552 24-155)
# T1 construct: Bought protein
# T1 sequence (Q16552 24-155 limits assumed): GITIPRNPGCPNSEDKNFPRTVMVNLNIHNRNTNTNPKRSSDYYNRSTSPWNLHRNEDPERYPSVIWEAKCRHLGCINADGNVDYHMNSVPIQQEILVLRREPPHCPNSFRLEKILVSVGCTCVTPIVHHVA
# protocol.notes: ELISA on captured hIL-17A, cleared E. coli lysates

| binder | binding result |
| --- | --- |
| V18 expressed in E. coli (Trx-6xHis-tagged) (receptor, Tested as cleared E. coli lysate; not shown: N-terminal thioredoxin (Trx)-6xHistidine tag of pET32) LRLLDHRALVCSQPGLNCTVKNSTCLDDSWIHPRNLTPSSPKDLQIQLHFAHTQQGDLFPVAHIEWTLQTDASILYLEGAELSVLQLDTNERLCVRFEFLSKLRHHHRRWRFTFSHFVVDPGQEYEVTVHHLPKPIPDGDPNHQSKNFLVPDCEDARMKVTTPCMSSGSLWDPNITVETLEAHQLRVSFTLWNESTHYQILLTSFPHMENHSCFEHMHHIPAPRPEEFHQRSNVTLTLRNLKGCCRHQVQIQPFFSSCLNDCLRHSATVSCPEMPDTPEPIPDYMPLW | binds |
| V17 expressed in E. coli (Trx-6xHis-tagged) (receptor, Tested as cleared E. coli lysate; not shown: N-terminal thioredoxin (Trx)-6xHistidine tag of pET32) LRLLDHRALVCSQPGLNCTVKNSTCLDDSWIHPRNLTPSSPKDLQIQLHFAHTQQGDLLPVAHIEWTLQTDASILYLEGAELSVLQLNTNERLCVRFEFLSELRHHHRRWRFTFSHFVVDPGQEYEVTVHHLPKPIPDGDPNHQSKNFLVPDCEDARMKVTTPCMSSGSLWDPNITVETLEAHQLRVSFTLWNESTHYQILLTSFPHMENHSCFEHMHHIPAPRPEEFHQRSNVTLTLRNLKGCCRHQVQIQPFFSSCLNDCLRHSATVSCPEMPDTPEPIPDYMPLW | binds |
